test system: EKVX; assay: NCI tumour cell line growth inhibition, 48 h
The source made the active and inactive calls. No stated cut-off is given here; in the data, active = GI50 up to about 1.1 µM and inactive = higher.
GI50: recorded values

Study these solved cases before continuing.
compound | GI50
O=C1/C(=N\n2c(S)nnc2-c2ccncc2)c2cc(Cl)ccc2N1CN1CCCCC1 | 4.65 µM (inactive)
CCCCCCCCCCNCCSSCc1ccc(Cl)cc1 | 3.06 µM (inactive)
CC(=O)c1c2n(n(-c3ccccc3)c1=O)C(=O)c1nccnc1-2 | > 100 µM (inactive)
c1ccc2sc(C3(N4CCC5(CC4)OCCO5)CCCCC3)cc2c1 | > 100 µM (inactive)

Problem: State its GI50 on EKVX: C=CCC(CNC(=O)OCc1ccccc1)OC(=O)OCc1ccccc1 (stereo unspecified)
Result: 33.4 µM (inactive)

Problem: API: value(readout= GI50, system= EKVX, query= Cn1c(S)nnc1CNc1ccc(-c2nnc(S)n2C)cc1 )
Result: > 100 µM (inactive)

Problem: What is its GI50 for EKVX? Entry: CC[As](CC)SCC1OC(OC(C)=O)C(OC(C)=O)C(OC(C)=O)C1OC(C)=O (stereo unspecified)
Result: 21.4 µM (inactive)

Problem: GI50 of COC1(O)c2cccc(Cl)c2C(=O)N1C1(C(N)=O)CCCCC1 (stereo unspecified) on EKVX?
Result: > 100 µM (inactive)

Problem: Param readout= GI50; system= EKVX; entry= NC(=O)c1ncn2c(=O)n(CCCl)nnc12 [MITOZOLOMIDE] ; returns value.
Result: 197 µM (inactive)

Problem: Give GI50 (EKVX) of the following compound: Cc1cc(OC(=O)c2c(C)cc(OC(=O)c3c(C)cc(O)cc3O)cc2O)cc(O)c1C(=O)O
Result: > 100 µM (inactive)

Problem: Which measured GI50 belongs to O=C(Nc1nccs1)c1c(O)nc2sccn2c1=O , tested on EKVX?
Result: > 10 µM (inactive)

Problem: Provide the documented GI50 with EKVX as the system for CCOC(=O)N1CCC2(CC1)C[C@](C)(C(C)=O)C(C)O2 (stereo partly specified)
Result: > 100 µM (inactive)

###

system: HOP-62; assay: NCI tumour cell line growth inhibition, 48 h
Calls of active or inactive are those of the source. No stated cut-off is given here; in the data, active = GI50 up to about 1.1 µM and inactive = higher.
assay readout: GI50

Some molecules with known GI50 results, for comparison:
input smiles | GI50
CC(=O)N1CC(C)(C)c2c1cc(C)c(O)c2C | > 100 µM (inactive)
Clc1ccc(/C=C/c2nc(-c3ccccc3)cn3c2nc2ccccc23)cc1Cl | 59.2 µM (inactive)

Lab note: next molecule to report on.
Problem: Would you kindly share the measured GI50 for CCCCNC(=S)c1ccc(OC(=O)Nc2ccc(Cl)cc2)cc1 ?
Result: > 100 µM (inactive)

###

system: HCC 2998; assay: NCI tumour cell line growth inhibition, 48 h
Active and inactive are the calls of the source. No stated cut-off is given here; in the data, active = GI50 up to about 1.1 µM and inactive = higher.
assay readout: GI50

Worked examples follow.
compound | assay readout | reported result
OC1c2ccccc2CCC1C(O)(C(F)(F)F)C(F)(F)F (stereo not drawn) | GI50 | > 100 µM (inactive)
CCCN(CCCCC(NC(C)=O)C(=O)NCc1ccccc1)C(=O)NCCCl (stereo not drawn) | GI50 | > 100 µM (inactive)

# context switch: different compound, same GI50
Problem: Provide the documented GI50 with HCC 2998 as the system for Cc1ccc(N/N=C2\C3=C(CCC(C)(C)O3)C(=O)c3ccccc32)cc1
Result: 19.7 µM (inactive)

The values you see were collected from ChEMBL document CHEMBL1201862.
